Assign ASMS ratio (%) n = 2 to each entry below.
Molecular target: Bcl-2 protein (Recombinant Human Bcl-2 Protein) (Homo sapiens)
Construct: purchased Novus Biologicals NBP2-34889
Assay: AS-MS evaluation of binding of the Example 4 mixture library (1200 compounds/well) to Bcl-2, ASMS ratio (%)
Conditions: AS-MS, Example 4 mixture library, Bcl-2, replicate n = 2
Field format: number, assumed %, no unit text.

Request: What value of measured ASMS ratio (%) n = 2 is listed for CCOc1cccc(-c2cc(CN3CCN(c4ccc(C(=O)NS(=O)(=O)CCC(F)(F)F)nn4)CC3)cc(OC(F)(F)F)c2)c1 ?
Result: 0.0

Request: What do you get for CCOc1cncc(-c2cc(OC)c(CN3CCN(c4ccc(C(=O)NS(=O)(=O)C(C)(C)C)nn4)CC3)c(OC)c2)c1 ?
Result: 0.0

Request: What do you get for CCOc1cccc(-c2ccc(CN3CCN(c4ccc(C(=O)NS(=O)(=O)CCC(F)(F)F)cc4)CC3)c3ccccc23)c1 ?
Result: 0.0

Request: What do you get for CCOc1cncc(-c2cc(C(=O)N3CCN(c4ccc(C(=O)NS(=O)(=O)c5ccc(NCCSc6ccccc6)c(C(F)(F)F)c5)cc4)CC3)cc(C(F)(F)F)c2)c1 ?
Result: 0.2

Request: What do you get for CCOc1cccc(-c2cc(CN3CCN(c4ccc(C(=O)NS(=O)(=O)CCC(F)(F)F)nn4)CC3)cc(OC(C)C)c2)c1 ?
Result: 0.0

Request: What do you get for CCOc1cccc(-c2ccc(C(=O)N3CCN(c4ccc(C(=O)NS(=O)(=O)CCC(F)(F)F)cc4)CC3)c3ccccc23)c1 ?
Result: 0.0

---

Assign ASMS ratio (%) n = 2 to each entry below.
Biological target: Bcl-2 protein (Recombinant Human Bcl-2 Protein) (Homo sapiens)
Construct: purchased Novus Biologicals NBP2-34889
Assay: AS-MS evaluation of binding of the Example 4 mixture library (1200 compounds/well) to Bcl-2, ASMS ratio (%)
Conditions: AS-MS, Example 4 mixture library, Bcl-2, replicate n = 2
Field format: number, assumed %, no unit text.

Request: ASMS ratio (%) n = 2, test system Bcl-2 protein (Recombinant Human Bcl-2 Protein) (Homo sapiens), entry CCOc1cncc(-c2cc(C(=O)N3CCN(c4ccc(C(=O)NS(=O)(=O)CCC(F)(F)F)cc4)CC3)cc(C(C)(C)C)c2)c1
Result: 0.0

Request: What do you get for CCOc1cccc(-c2ccccc2CCC(=O)N2CCN(c3ccc(C(=O)NS(=O)(=O)CCC(F)(F)F)nn3)CC2)c1 ?
Result: 0.0

Request: What do you get for CCOc1cncc(-c2ccc(C(=O)N3CCN(c4ccc(C(=O)NS(=O)(=O)CCC(F)(F)F)cc4)CC3)cc2C)c1 ?
Result: −0.7

Request: What do you get for CCOc1cccc(-c2ccc(CN3CCN(c4ccc(C(=O)NS(=O)(=O)c5ccc(NCCSc6ccccc6)c(C(F)(F)F)c5)cc4)CC3)cc2F)c1 ?
Result: −1.8

Request: What do you get for CCOc1cccc(-c2cnn(-c3cc(C(=O)N4CCN(c5ccc(C(=O)NS(=O)(=O)c6ccc(NCCSc7ccccc7)c(C(F)(F)F)c6)cc5)CC4)cc(C(F)(F)F)c3)c2)c1 ?
Result: −9.0

Request: What do you get for CCOc1cccc(-c2cc(CN3CCN(c4ccc(C(=O)NS(=O)(=O)CCC(F)(F)F)nn4)CC3)cc(C(F)(F)F)c2)c1 ?
Result: 0.0

Request: What do you get for CCOc1cccc(-c2ccc(CN3CCN(c4ccc(C(=O)NS(=O)(=O)CCC(F)(F)F)cc4)CC3)cc2F)c1 ?
Result: 0.0

Request: What do you get for CCOc1cccc(-c2ccc(CN3CCN(c4ccc(C(=O)NS(=O)(=O)CCC(F)(F)F)cc4)CC3)c(OC)c2)c1 ?
Result: 1.4

Request: What do you get for CCOc1cncc(-c2ccccc2CN2CCN(c3ccc(C(=O)NS(=O)(=O)CCC(F)(F)F)cc3)CC2)c1 ?
Result: −1.2

Request: What do you get for CCOc1cccc(-c2csc(C(=O)N3CCN(c4ccc(C(=O)NS(=O)(=O)CCC(F)(F)F)nn4)CC3)c2)c1 ?
Result: 0.0

Request: What do you get for CCOc1cccc(-c2ccc(CN3CCN(c4ccc(C(=O)NS(=O)(=O)c5ccc(NCCSc6ccccc6)c(C(F)(F)F)c5)nn4)CC3)cc2C)c1 ?
Result: 0.0

Request: What do you get for CCOc1cncc(-c2ccc(CN3CCN(c4ccc(C(=O)NS(=O)(=O)c5ccc(NCCSc6ccccc6)c(C(F)(F)F)c5)nn4)CC3)c3ccccc23)c1 ?
Result: −1.3

---

Molecular target: Bcl-2 protein (Recombinant Human Bcl-2 Protein) (Homo sapiens, UniProt P10415)
Construct: purchased Novus Biologicals NBP2-34889
Sequence (P10415 whole entry): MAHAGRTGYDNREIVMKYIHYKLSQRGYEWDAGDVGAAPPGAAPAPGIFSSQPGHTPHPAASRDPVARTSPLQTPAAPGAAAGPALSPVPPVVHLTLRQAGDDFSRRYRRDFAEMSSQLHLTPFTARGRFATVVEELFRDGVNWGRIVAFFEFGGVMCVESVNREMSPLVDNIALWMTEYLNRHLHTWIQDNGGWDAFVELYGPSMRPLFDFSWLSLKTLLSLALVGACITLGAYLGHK
Assay: AS-MS evaluation of binding of the Example 4 mixture library (1200 compounds/well) to Bcl-2, ASMS ratio (%)
Details: AS-MS, Example 4 mixture library, Bcl-2, replicate n = 1
PROPERTY NAME: ASMS ratio (%) n = 1
Field format: number, assumed %, no unit text.

Request: What value of measured ASMS ratio (%) n = 1 is listed for CCOc1cccc(-c2cc(CN3CCN(c4ccc(C(=O)NS(=O)(=O)CCC(F)(F)F)nn4)CC3)cc(OCC)c2)c1 ?
Result: 0.0

Request: What do you get for CCOc1cncc(-c2ccc(CN3CCN(c4ccc(C(=O)NS(=O)(=O)c5ccc(NCCSc6ccccc6)c(C(F)(F)F)c5)cc4)CC3)c3ccccc23)c1 ?
Result: 19.8

Request: What do you get for CCOc1cccc(C#Cc2cncc(C(=O)N3CCN(c4ccc(C(=O)NS(=O)(=O)CCC(F)(F)F)cc4)CC3)c2)c1 ?
Result: 0.0

---

Biological target: Bcl-2 protein (Recombinant Human Bcl-2 Protein) (Homo sapiens)
Construct: purchased Novus Biologicals NBP2-34889
Test: AS-MS evaluation of binding of the Example 4 mixture library (1200 compounds/well) to Bcl-2, ASMS ratio (%)
Conditions: replicate n = 1; mixture library; value belongs to the MS peak assigned to the compound
Assign ASMS ratio (%) n = 1 to each entry below.
Field format: number, assumed %, no unit text.

Request: What value of measured ASMS ratio (%) n = 1 is listed for CCOc1cncc(C#Cc2ccccc2CN2CCN(c3ccc(C(=O)NS(=O)(=O)C(C)(C)C)cc3)CC2)c1 ?
Result: 4.9

Request: What do you get for CCOc1cncc(-c2cc(OC)c(CN3CCN(c4ccc(C(=O)NS(C)(=O)=O)cc4)CC3)c(OC)c2)c1 ?
Result: 0.0

Request: What do you get for CCOc1cncc(-c2cc(CN3CCN(c4ccc(C(=O)NS(C)(=O)=O)cc4)CC3)cc(C(F)(F)F)c2)c1 ?
Result: 0.0

Request: What do you get for CCOc1cccc(-c2ccc(CN3CCN(c4ccc(C(=O)NS(C)(=O)=O)cc4)CC3)c(OC)c2)c1 ?
Result: 0.0

Request: What do you get for CCOc1cccc(-c2cc(CN3CCN(c4ccc(C(=O)NS(=O)(=O)C(C)(C)C)cc4)CC3)cc(OC(C)C)c2)c1 ?
Result: 0.0

Request: What do you get for CCOc1cccc(-c2cc(CN3CCN(c4ccc(C(=O)NS(C)(=O)=O)cc4)CC3)cc(C(F)(F)F)c2)c1 ?
Result: −0.8

Request: What do you get for CCOc1cncc(-c2ccccc2CN2CCN(c3ccc(C(=O)NS(C)(=O)=O)cc3)CC2)c1 ?
Result: −0.6

Request: What do you get for CCOc1cccc(-c2csc(C(=O)N3CCN(c4ccc(C(=O)NS(=O)(=O)C(C)(C)C)cc4)CC3)c2)c1 ?
Result: 0.0

Request: What do you get for CCOc1cccc(-c2cc(C(=O)N3CCN(c4ccc(C(=O)NS(C)(=O)=O)cc4)CC3)cc(C(F)(F)F)c2)c1 ?
Result: 0.0

Request: What do you get for CCOc1cccc(-c2cc(CN3CCN(c4ccc(C(=O)NS(C)(=O)=O)nn4)CC3)cc(OC(F)(F)F)c2)c1 ?
Result: 1.4

Request: What do you get for CCOc1cncc(-c2ccc(CN3CCN(c4ccc(C(=O)NS(C)(=O)=O)cc4)CC3)cc2F)c1 ?
Result: 0.0

Request: What do you get for CCOc1cccc(-c2ccc(CN3CCN(c4ccc(C(=O)NS(C)(=O)=O)cc4)CC3)c(CC)c2)c1 ?
Result: 0.0

Request: What do you get for CCOc1cncc(-c2csc(CN3CCN(c4ccc(C(=O)NS(C)(=O)=O)nn4)CC3)c2)c1 ?
Result: 0.0

Request: What do you get for CCOc1cccc(-c2ccc(CN3CCN(c4ccc(C(=O)NS(=O)(=O)C(C)(C)C)nn4)CC3)c(CC)c2)c1 ?
Result: 0.0

---

Assign ASMS ratio (%) n = 2 to each entry below.
Biological target: Bcl-2 protein (Recombinant Human Bcl-2 Protein) (Homo sapiens, UniProt P10415)
Construct: purchased Novus Biologicals NBP2-34889
Assay: AS-MS evaluation of binding of the Example 4 mixture library (1200 compounds/well) to Bcl-2, ASMS ratio (%)
Details: Example 4 mixture library, 1200 compounds/well, Bcl-2 protein; replicate n = 2; value belongs to the MS peak assignable to the compound
Field format: number, assumed %, no unit text.

Request: What value of measured ASMS ratio (%) n = 2 is listed for CCOc1cncc(-c2ccc(C(=O)N3CCN(c4ccc(C(=O)N(CC)CC)nn4)CC3)cc2F)c1 [Compound B4J006-01] ?
Result: 0.0

Request: What do you get for CCOc1cncc(-c2cc(OC)c(CN3CCN(c4ccc(C(=O)N(CC)CC)cc4)CC3)c(OC)c2)c1 [Compound B4J060-01] ?
Result: 0.0

Request: What do you get for CCOc1cncc(-c2cc(C(=O)N3CCN(c4ccc(C(=O)NS(=O)(=O)c5ccc(NCCSc6ccccc6)c([N+](=O)[O-])c5)cc4)CC3)cc(C(F)(F)F)c2)c1 [Compound B2Q040-01] ?
Result: 1.5

Request: What do you get for CCOc1cccc(-c2ccc(CN3CCN(c4ccc(C(=O)N(CC)CC)nn4)CC3)cc2F)c1 [Compound B4J077-01] ?
Result: 5.5

Request: What do you get for CCOc1cccc(-c2cc(OC)c(CN3CCN(c4ccc(C(=O)N(CC)CC)cc4)CC3)c(OC)c2)c1 [Compound B4J059-01] ?
Result: −6.0

Request: What do you get for CCOc1cccc(-c2cc(CN3CCN(c4ccc(C(=O)NS(=O)(=O)c5ccc(NCCSc6ccccc6)c([N+](=O)[O-])c5)nn4)CC3)cc(OC(F)(F)F)c2)c1 [Compound B2Q089-01] ?
Result: −15.0
